- Assay method text: Single oral (PO) dose pharmacokinetics study in rats; plasma concentration of MDMA (and prodrug) by LC-MS/MS
- Recorded conditions: male, Sprague-Dawley, rat, plasma, po, 10 mg/kg, AUC0-24, MDMA dosed PO 10 mg/Kg, male SD rats, analyte MDMA, mean
Measurement label: AUC(0-t) (ng·h/mL)

- Molecule: "CNC(C)Cc1ccc2c(c1)OCO2 (stereo not shown) [MDMA, 3,4-Methylenedioxymethamphetamine]"
  Value: 1810

* * *

- Assay method text: Single intravenous (IV) dose pharmacokinetics study in rats; plasma concentration of MDMA by LC-MS/MS
- Recorded conditions: male, Sprague-Dawley, rat, plasma, iv, 1 mg/kg

- Molecule: "CNC(C)Cc1ccc2c(c1)OCO2 (stereo not shown) [MDMA, 3,4-Methylenedioxymethamphetamine]"
  clearance, mL/min/kg: 274
